tested on: efflux transporters (P-gp, MRP, BCRP); type: biochemical; conditions: human, inside-out vesicles from placental brush border membranes, pH 7.4, probe [3H]-estrone sulfate, 100 nM
endpoint name: IC50 at 3 min (µM)
Kindly answer with a numeric value in µM, unit omitted.

Record request: IC50 at 3 min value, item CC[C@H](C)C(=O)O[C@H]1C[C@H](O)C=C2C=C[C@H](C)[C@H](CC[C@@H](O)C[C@@H](O)CC(=O)O)[C@H]21
30

====

test system: efflux transporters (P-gp, MRP, BCRP); assay type: biochemical; settings: human, inside-out vesicles from placental brush border membranes, pH 7.4, probe [3H]-paclitaxel, 40 nM
endpoint name: IC50 at 1 min (µM)
Kindly answer with a numeric value in µM, unit omitted.

Record request: IC50 at 1 min value, item CC[C@H](C)C(=O)O[C@H]1C[C@H](O)C=C2C=C[C@H](C)[C@H](CC[C@@H](O)C[C@@H](O)CC(=O)O)[C@H]21 [Pravastatin, pravastatin]
11

meta.source: paper PMC3891837
